Listed next: entries and their corresponding IC50.
Molecular target: B1 bradykinin receptor (Homo sapiens, UniProt P46663)
Assay: Antagonist activity at human bradykinin B1 receptor expressed in CHOD cells assessed as effect on DAK-induced calcium flux
Assay type: functional, cell-based

In [3]: df
Out[3]:
                               smiles_input                reading
0  NCc1ccc2c(c1)OCC[C@H]2NC(=O)C[C@@H](NS(=O)(=O)c1ccc2ccccc2c1)c1ccccc1  0.352 µM (antagonist)

stdin: For the molecule CC(C)(C)NCc1ccc2c(c1)OCC[C@H]2NC(=O)C[C@@H](NS(=O)(=O)c1ccc(Cl)c(Cl)c1)c1ccccc1 , report IC50.
stdout: 0.0243 µM (antagonist)

stdin: For CC(C)(C)NCc1ccc2c(c1)OCC[C@H]2NC(=O)C[C@@H](NS(=O)(=O)c1cccc(C(F)(F)F)c1)c1ccccc1 , write its IC50.
stdout: 0.0784 µM (antagonist)

----------
Quick reference for Ki among some molecules
Biological target: B1 bradykinin receptor (Homo sapiens, UniProt P46663)
Assay: Displacement of [3H]DAK from human bradykinin B1 receptor expressed in CHOD cells
Assay type: cell-based

                               smiles_input              reading
0  CCNCc1ccc2c(c1)OCC[C@H]2NC(=O)C[C@@H](NS(=O)(=O)c1ccc2ccccc2c1)c1ccccc1  8.9 nM (antagonist)

stdin: Kindly indicate its recorded Ki. Item: CC(C)(C)NCc1ccc2c(c1)OCC[C@H]2NC(=O)C[C@@H](NS(=O)(=O)c1cccc(C(F)(F)F)c1)c1ccc(F)cc1
stdout: 4.8 nM (antagonist)

stdin: Return the recorded Ki value; entry: Cc1c(Cl)cccc1S(=O)(=O)N[C@H](CC(=O)N[C@@H]1CCOc2cc(CNC(C)(C)C)ccc21)c1ccccc1
stdout: 40.6 nM (antagonist)

stdin: Annotate the molecule CC(C)(C)NCc1ccc2c(c1)OCC[C@H]2NC(=O)C[C@@H](NS(=O)(=O)c1ccccc1Cl)c1ccccc1 with its measured Ki.
stdout: 393 nM (antagonist)

stdin: Please look at this molecule and report its Ki: O=C(C[C@@H](NS(=O)(=O)c1ccc2ccccc2c1)c1ccccc1)N[C@@H]1CCOc2cc(CN3CCOCC3)ccc21
stdout: 3.7 nM (antagonist)

stdin: Give the value of Ki reported for the following: O=C(C[C@@H](NS(=O)(=O)c1ccc2ccccc2c1)c1ccccc1)N[C@@H]1CCOc2cc(CN3CCCC3)ccc21
stdout: 5.7 nM (antagonist)

stdin: Answer with the recorded Ki of COCCNCc1ccc2c(c1)OCC[C@H]2NC(=O)C[C@@H](NS(=O)(=O)c1cccc(C(F)(F)F)c1)c1ccc(F)cc1 only.
stdout: 14 nM (antagonist)

stdin: Identify the reported Ki for the following entry. CC(C)CNCc1ccc2c(c1)OCC[C@H]2NC(=O)C[C@@H](NS(=O)(=O)c1cccc(C(F)(F)F)c1)c1ccc(F)cc1
stdout: 5.9 nM (antagonist)

stdin: Return value of Ki for input COCCNCc1ccc2c(c1)OCC[C@H]2NC(=O)C[C@@H](NS(=O)(=O)c1ccc(Cl)c(Cl)c1)c1ccc(F)cc1 , no commentary.
stdout: 6.7 nM (antagonist)

stdin: Query Ki for CC(C)(C)NCc1ccc2c(c1)OCC[C@H]2NC(=O)C[C@@H](NS(=O)(=O)c1cccc(Cl)c1)c1ccccc1
stdout: 27.7 nM (antagonist)

stdin: Retrieve Ki measured for CC(C)(C)NCc1ccc2c(c1)OCC[C@H]2NC(=O)C[C@@H](NS(=O)(=O)c1ccc(Cl)cc1)c1ccccc1 and print it.
stdout: 132 nM (antagonist)

stdin: State its Ki: CC(C)(C)NCc1ccc2c(c1)OCC[C@H]2NC(=O)C[C@@H](NS(=O)(=O)c1ccc(F)c(Cl)c1)c1ccccc1
stdout: 25.2 nM (antagonist)

stdin: For the molecule O=C(C[C@@H](NS(=O)(=O)c1ccc2ccccc2c1)c1ccccc1)N[C@@H]1CCOc2cc(CNC3CCCCC3)ccc21 , give its reported Ki.
stdout: 21.8 nM (antagonist)

stdin: Please list Ki recorded for the molecule CC(C)(C)NCc1ccc2c(c1)OCC[C@H]2NC(=O)C[C@@H](NS(=O)(=O)c1ccc2ccccc2c1)c1ccccc1
stdout: 5.4 nM (antagonist)

stdin: Hello, please tell me recorded Ki for this one: CC(C)(C)NCc1ccc2c(c1)OCC[C@H]2NC(=O)C[C@@H](NS(=O)(=O)c1cc(Cl)c(F)cc1F)c1ccccc1
stdout: 20.6 nM (antagonist)

----------
Experiment: Half life in Sprague-Dawley rat at 1 mg/kg, iv
Format: ADME, organism-based
Set-up: dose 1 mg/kg, route intravenous
Settings: in vivo
measured quantity: half-life (h)

>>> print(df.to_string())
                               smiles_input  measured_quantity  reading
0  COCCNCc1ccc2c(c1)OCC[C@H]2NC(=O)C[C@@H](NS(=O)(=O)c1cccc(C(F)(F)F)c1)c1ccc(F)cc1          half-life      3.4

1. O=C(C[C@@H](NS(=O)(=O)c1cccc(C(F)(F)F)c1)c1ccc(F)cc1)N[C@@H]1CCOc2cc(CN3CCCC3)ccc21
2. O=C(C[C@@H](NS(=O)(=O)c1cccc(C(F)(F)F)c1)c1ccc(F)cc1)N[C@@H]1CCOc2cc(CN3CCCCC3)ccc21
stdin: Sorting by half-life in descending order, would 1 or 2 appear first? // return label of chosen record
stdout: 1

----------
The following compounds are listed with their measured IC50 values.
Target: B1 bradykinin receptor (Homo sapiens)
Assay: Antagonist activity at human bradykinin B1 receptor expressed in CHOD cells assessed as effect on DAK-induced calcium flux
Type: functional, cell-based

In [3]: df
Out[3]:
                               smiles_input  measured_quantity               reading
0  CC(C)(C)NCc1ccc2c(c1)OCC[C@H]2NC(=O)C[C@@H](NS(=O)(=O)c1ccc(C(F)(F)F)cc1)c1ccccc1               IC50   330 nM (antagonist)
1  O=C(C[C@@H](NS(=O)(=O)c1cccc(C(F)(F)F)c1)c1ccc(F)cc1)N[C@@H]1CCOc2cc(CN3CCCC3)ccc21               IC50  19.7 nM (antagonist)
2  CC(C)(C)NCc1ccc2c(c1)OCC[C@H]2NC(=O)C[C@@H](NS(=O)(=O)c1cc(Cl)c(F)cc1F)c1ccccc1               IC50   127 nM (antagonist)
3  COCCNCc1ccc2c(c1)OCC[C@H]2NC(=O)C[C@@H](NS(=O)(=O)c1cccc(C(F)(F)F)c1)c1ccc(F)cc1               IC50  17.4 nM (antagonist)
4  CC(C)(C)NCc1ccc2c(c1)OCC[C@H]2NC(=O)C[C@@H](NS(=O)(=O)c1ccc(Cl)c(Cl)c1)c1ccc(F)cc1               IC50   9.6 nM (antagonist)
5  CC(C)(C)NCc1ccc2c(c1)OCC[C@H]2NC(=O)C[C@@H](NS(=O)(=O)c1ccc(Cl)cc1)c1ccccc1               IC50   580 nM (antagonist)

stdin: Return the recorded IC50 value; entry: CCNCc1ccc2c(c1)OCC[C@H]2NC(=O)C[C@@H](NS(=O)(=O)c1ccc2ccccc2c1)c1ccccc1
stdout: 60.2 nM (antagonist)

----------
Biological target: B1 bradykinin receptor (Homo sapiens, UniProt P46663)
Sequence (P46663 whole entry): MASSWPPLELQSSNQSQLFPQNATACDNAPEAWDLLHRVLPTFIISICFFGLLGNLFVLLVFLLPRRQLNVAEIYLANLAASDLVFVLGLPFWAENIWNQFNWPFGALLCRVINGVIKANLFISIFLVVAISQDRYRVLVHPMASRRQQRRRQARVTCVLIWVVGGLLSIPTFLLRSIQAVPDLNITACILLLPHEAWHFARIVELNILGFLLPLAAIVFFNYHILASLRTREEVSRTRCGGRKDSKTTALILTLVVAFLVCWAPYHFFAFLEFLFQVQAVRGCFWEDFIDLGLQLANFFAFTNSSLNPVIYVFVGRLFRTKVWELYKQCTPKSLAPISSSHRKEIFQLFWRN
Test: Displacement of [3H]DAK from human bradykinin B1 receptor expressed in CHOD cells
Assay type: cell-based
measured quantity: Ki

>>> df
                               smiles_input  measured_quantity              reading
0  O=C(C[C@@H](NS(=O)(=O)c1cccc(C(F)(F)F)c1)c1ccc(F)cc1)N[C@@H]1CCOc2cc(CN3CCCC3)ccc21                 Ki  5.5 nM (antagonist)
1  CC(C)(C)NCc1ccc2c(c1)OCC[C@H]2NC(=O)C[C@@H](NS(=O)(=O)c1ccccc1C(F)(F)F)c1ccccc1                 Ki  367 nM (antagonist)
2  NCc1ccc2c(c1)OCC[C@H]2NC(=O)C[C@@H](NS(=O)(=O)c1ccc2ccccc2c1)c1ccccc1                 Ki  308 nM (antagonist)

Turning now to a further record.
stdin: Assign Ki to the following record: CC(C)(C)NCc1ccc2c(c1)OCC[C@H]2NC(=O)C[C@@H](NS(=O)(=O)c1cccc(C(F)(F)F)c1)c1ccc(C#N)cc1
stdout: 120 nM (antagonist)

Recorded values, source ChEMBL document CHEMBL1147141.
